- Test system: K562;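 note: after 48 h exposure read by CellTiter-Glo luminescence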
- measurement-description: cell viability relative to vehicle control; higher = less cytotoxic
- particulars: 10 µM; SRSF2 genotype: SRSF2 wt/wt
Where a name gives a salt, the structure may show the parent alone.
Sorting guide: entries reporting cell viability beneath 90% go in the y pile, the rest go in the n pile.

• C[C@@H]1CC[C@@]2(OC1)O[C@H]1C[C@H]3[C@@H]4CC=C5C[C@@H](O[C@@H]6O[C@H](CO)[C@@H](O)[C@H](O)[C@H]6O)CC[C@]5(C)[C@H]4CC[C@]3(C)[C@H]1[C@@H]2C = n
• O=C1C(=Cc2ccncc2)CCCC1=Cc1ccncc1 = y
• Cc1ccc(Nc2nccc(N(C)c3ccc4c(C)n(C)nc4c3)n2)cc1S(N)(=O)=O = y
• COc1cc(C=O)ccc1O = n

**Query** Answer whether the compound CO[C@H]1C[C@@H]2CC[C@@H](C)[C@@](O)(O2)C(=O)C(=O)N2CCCC[C@H]2C(=O)O[C@H]([C@H](C)C[C@@H]2CC[C@H](n3cnnn3)[C@H](OC)C2)CC(=O)[C@H](C)/C=C(\C)[C@@H](O)[C@@H](OC)C(=O)[C@H](C)C[C@H](C)/C=C/C=C/C=C/1C has cell viability strictly less than 90%
**Result** y

**Query** Does this compound meet the criterion cell viability < 90%? CCNC(=O)c1noc(-c2cc(Cl)c(O)cc2O)c1-c1ccc(OC)cc1
**Result** y

**Query** hey, is cell viability for OC[C@H]1OC(O)[C@H](O)[C@@H](O)[C@H]1O (some centres not stated) lower than 90% or not?
**Result** n

**Query** Does this compound meet the criterion cell viability < 90%? CC(=O)NC(Cc1ccc(O)cc1)C(=O)NC(CCCN=C(N)N)C(=O)NC(Cc1ccccc1)C(N)=O (configuration not stated)
**Result** y

**Query** Below 90% on cell viability? Entry C=C1CC[C@@H]2[C@](C)(COC(=O)CCC(=O)O)[C@H](OC(=O)CCC(=O)O)CC[C@@]2(C)[C@@H]1/C=C/C1=CCOC1=O [Dehydroandrographolide Succinate Potasium Sa]
**Result** n

**Query** Is cell viability of COc1ccc(C(=O)O)cc1O strictly below 90%?
**Result** n

**Query** Take the compound CC(C)(C#N)c1cc(Cn2cncn2)cc(C(C)(C)C#N)c1 and say whether its cell viability is less than 90%.
**Result** n

**Query** For COCCNC(=O)Nc1ccc2nc(-c3cccs3)c(-c3cccs3)nc2c1 , is the recorded cell viability below the cut-off of 90%?
**Result** y

**Query** Is cell viability strictly under 90% for the entry CC(C)c1c(-c2ccccc2)nc2c(C#N)c[nH]n2c1=O ?
**Result** n

**Query** Hi there! Is cell viability for Clc1ccc2c(c1)CCc1cccnc1C2=C1CCNCC1 below 90%, do you know?
**Result** n

**Query** Does the reported cell viability of CCOCCn1c(C2CCN(CCc3ccc(C(C)(C)C(=O)O)cc3)CC2)nc2ccccc21 stay below 90%?
**Result** n

**Query** Dear reviewer, please state whether CN1C(N)=N[C@](C)(c2cc(NC(=O)c3ccc(F)cn3)ccc2F)CS1(=O)=O has cell viability strictly beneath 90%.
**Result** n

**Query** Input CCN(CC)c1ccc2cc(C(=O)O)c(=O)oc2c1 ; condition: cell viability strictly below 90%. Does it hold?
**Result** n

**Query** Please let me know if CC(C)(C)OC(=O)Nc1ccc(-c2cc(C(=O)NCCCCCCC(=O)NO)no2)cc1 shows cell viability below 90%.
**Result** y

**Query** Determine whether this compound shows cell viability lower than 90% (ties excluded): FC(F)(F)c1ccc(/C=C/c2nc(COc3ccc(CCCCn4ccnn4)cc3)co2)cc1
**Result** y

**Query** Strictly below 90%: is that where cell viability of CCOC(=O)c1ccc(O)c(OC)c1 [Ethyl Vanillate] sits?
**Result** n

**Query** Dear reviewer, please state whether O=c1c(-c2ccc(O)cc2)coc2cc(O)ccc12 has cell viability strictly beneath 90%.
**Result** n

**Query** Hello, is cell viability of the following compound strictly smaller than 90%? CCN(CC)Cc1cc(Nc2ccnc3cc(Cl)ccc23)ccc1O [Amodiaquine hydrochloride]
**Result** y
